Biological target: T1, Human soluble IL6-R (human, UniProt P08887 20-358)
T1 construct: Bought soluble receptor; biotinylated in some Alphascreen assays; also called sIL6-R; hIL-6R
T1 sequence (looked up): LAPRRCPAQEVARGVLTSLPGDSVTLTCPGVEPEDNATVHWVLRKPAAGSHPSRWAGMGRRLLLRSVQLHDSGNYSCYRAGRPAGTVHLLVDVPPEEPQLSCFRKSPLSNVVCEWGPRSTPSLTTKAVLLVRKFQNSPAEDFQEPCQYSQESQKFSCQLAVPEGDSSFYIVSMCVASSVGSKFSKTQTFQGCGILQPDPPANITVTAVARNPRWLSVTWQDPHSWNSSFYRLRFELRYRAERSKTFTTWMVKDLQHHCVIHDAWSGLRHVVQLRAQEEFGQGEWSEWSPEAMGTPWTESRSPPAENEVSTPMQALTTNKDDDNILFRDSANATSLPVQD
Experiment: SPR (Biacore), off-rate
READOUT KIND: koff (s⁻¹)

BINDER | koff / s⁻¹
PMP 32 F10 (VHH, also called PMP32F10(t)) VHH: EVQLVESGGGLVQAGGSLRLSCAASGFTFDDYAIGWFRQAPGKEREGISCISSSDGSTYYADSVKGRFTISSDNAKNTVYLQMNSLKPEDTAVYYCAAEPPDSSWILDGSPEFFKFWGQGTQVTVSS | 0.00058

[P] PMP 34 C3 (VHH, also called PMP34C3(t)) VHH: EVQLVESGGGLVQPGGSLRLSCVASGFSLDYYVIGWFRQAPGKEREGVSCISSSDGSTYYADSVKGRFTISRDNAKNTVYLQMNSLKPEDTAVYYCAADLLRTPEFCVDSAPYDYWGRGTQVTVSS
[Q] IL6R14 (VHH, also called PMP40H5; PMP 40 H5) VHH: EVQLVESGGGLVQPGGSLRLSCAASGFSLDYYAIGWFRQAPGKEREGVSCMDSSSGTTSTYYSDSVKGRFTISRDDAKNTVYLQMNSLKPEDTAVYYCAADGHLNWGQRYVPCSQISWRGWNDYWGQGTQVTVSS
[R] IL6R02 (VHH, also called PMP30C11; PMP 30 C11) VHH: EVQLVESGGGLVQAGGSLRLSCAASGRTFSSYDMGWYRQAPGKEREFVAVISRSGSSTYYADSVKGRFTISRDNAKNTVYLQMNSLKPEDTAIYYCKAEVVAGDYDYWGQGTQVTVSS
Falling order of koff, please. Ranked list of labels, please, in the requested order. R, P, Q
(R: 0.00294 s⁻¹, P: 0.000435 s⁻¹, Q: 0.000114 s⁻¹)
